B1: C10orf62 (parent)
chain: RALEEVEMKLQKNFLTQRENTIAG

# Variants of: B1
# Test name: protein stability index of a GFP-peptide fusion (GPS, HEK-293T) (PSI 1-6); higher = more stable;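 also: lentivirally expressed fusions sorted by FACS into six bins by GFP to DsRed ratio, PSI derived from sequencing read proportions per bin multiplied by bin number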
# Test context: c terminus: a fixed tail appended
Assign class by protein stability index: not lower than 4 means criterion met; lower than 4 means criterion not met.

{"Residue change": "R1I", "Assigned label": "criterion not met"}
{"Residue change": "L3K", "Assigned label": "criterion met"}
{"Residue change": "E7K", "Assigned label": "criterion not met"}
{"Residue change": "L15T", "Assigned label": "criterion not met"}
{"Residue change": "E19R", "Assigned label": "criterion not met"}
{"Residue change": "R18M", "Assigned label": "criterion not met"}
{"Residue change": "E19A", "Assigned label": "criterion not met"}
{"Residue change": "E4Q", "Assigned label": "criterion not met"}
{"Residue change": "R18Y", "Assigned label": "criterion not met"}
{"Residue change": "R1H", "Assigned label": "criterion not met"}
{"Residue change": "Q17P", "Assigned label": "criterion not met"}
{"Residue change": "R18S", "Assigned label": "criterion met"}
{"Residue change": "E19C", "Assigned label": "criterion not met"}
{"Residue change": "R18P", "Assigned label": "criterion not met"}
{"Residue change": "T21N", "Assigned label": "criterion not met"}
{"Residue change": "M8E", "Assigned label": "criterion met"}
{"Residue change": "L10E", "Assigned label": "criterion met"}
{"Residue change": "K9P", "Assigned label": "criterion not met"}
{"Residue change": "N20V", "Assigned label": "criterion not met"}
{"Residue change": "Q17Y", "Assigned label": "criterion not met"}
{"Residue change": "N13C", "Assigned label": "criterion not met"}
{"Residue change": "E19M", "Assigned label": "criterion not met"}
{"Residue change": "I22A", "Assigned label": "criterion met"}
{"Residue change": "K9W", "Assigned label": "criterion not met"}
{"Residue change": "K9T", "Assigned label": "criterion not met"}
{"Residue change": "G24R", "Assigned label": "criterion not met"}
{"Residue change": "R1G", "Assigned label": "criterion met"}
{"Residue change": "R1M", "Assigned label": "criterion not met"}
{"Residue change": "Q17A", "Assigned label": "criterion not met"}
{"Residue change": "E7N", "Assigned label": "criterion not met"}
{"Residue change": "E7I", "Assigned label": "criterion not met"}
{"Residue change": "F14L", "Assigned label": "criterion met"}
{"Residue change": "T21G", "Assigned label": "criterion not met"}
{"Residue change": "E4A", "Assigned label": "criterion not met"}
{"Residue change": "E7Q", "Assigned label": "criterion not met"}
{"Residue change": "E5Q", "Assigned label": "criterion not met"}
{"Residue change": "Q11T", "Assigned label": "criterion not met"}
{"Residue change": "Q17R", "Assigned label": "criterion not met"}
{"Residue change": "K9A", "Assigned label": "criterion not met"}
